# ASSAY_TARGET: GRK2 (Homo sapiens)
# Sequence (P25098 whole entry): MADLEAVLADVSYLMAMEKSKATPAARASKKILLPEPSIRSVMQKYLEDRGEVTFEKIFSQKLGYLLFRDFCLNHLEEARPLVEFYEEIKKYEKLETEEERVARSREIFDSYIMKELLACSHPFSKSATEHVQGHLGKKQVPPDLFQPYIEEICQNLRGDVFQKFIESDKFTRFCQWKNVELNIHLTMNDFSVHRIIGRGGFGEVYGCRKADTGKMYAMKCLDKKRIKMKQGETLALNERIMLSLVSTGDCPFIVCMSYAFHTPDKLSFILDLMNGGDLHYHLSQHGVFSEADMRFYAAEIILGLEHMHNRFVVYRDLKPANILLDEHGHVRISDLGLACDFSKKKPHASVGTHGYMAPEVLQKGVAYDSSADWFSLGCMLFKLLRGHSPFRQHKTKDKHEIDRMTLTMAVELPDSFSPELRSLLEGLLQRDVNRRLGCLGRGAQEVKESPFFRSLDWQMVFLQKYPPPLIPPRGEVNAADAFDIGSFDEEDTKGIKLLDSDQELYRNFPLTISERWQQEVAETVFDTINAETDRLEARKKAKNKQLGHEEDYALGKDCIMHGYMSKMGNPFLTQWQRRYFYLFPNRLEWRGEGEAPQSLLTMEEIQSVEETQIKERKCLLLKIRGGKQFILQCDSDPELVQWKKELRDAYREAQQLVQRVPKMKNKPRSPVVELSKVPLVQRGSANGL
# TEST_DESCRIPTION: hGRK2 LANCE Ultra In Vitro Assay
# Type: biochemical
# RECORDED_CONDITIONS: Biological Example 1 GRK2 Lancer IC50 (μM), 10 nM GRK2; 30 or 600 μM ATP (not stated which); multiple measurements listed individually
# Method: hGRK2 LANCE Ultra In Vitro Assay G-protein coupled receptor kinases (GR Kinases) desensitize activated G-protein coupled receptors (GPCRs), by phosphorylation of cytoplasmic loops or carboxyl-terminal tails of GPCRs. […] where NC is the mean of negative control (reactions without GRK2), and PC is the mean of positive control (reactions with GRK2 but without inhibitor). IC50 values were determined from a 4-parameter fit, using the following equation: […]
Give IC50 for every item shown.
Form entry: value (µM) — number only.

Challenge: Dear colleague, I am looking for the recorded IC50 of the following compound: O=C1c2cc(-c3cn[nH]c3)ccc2CN1Cc1cccc(-n2cccn2)c1
Response given: 0.113

Challenge: Follow-up entry: COc1cccc(C(CCC(=O)O)N2Cc3ccc(-c4cn[nH]c4)cc3C2=O)c1 (centres unmarked)
Response given: 0.404

Challenge: Follow-up entry: COCC(c1cccc(OC)c1)N1Cc2ccc(-c3cn[nH]c3)cc2C1=O (centres unmarked)
Response given: 0.009

Challenge: Follow-up entry: COc1cccc([C@@H](C)N2C(=O)c3cc(-c4cn[nH]c4)ccc3C23CCC(O)C3)c1 (mixture of isomers)
Response given: 0.092

Challenge: Follow-up entry: COc1ccc(OC)c(C(CO)N2Cc3ccc(-c4cn[nH]c4)cc3C2=O)c1 (centres unmarked)
Response given: 0.742

Challenge: Follow-up entry: CCOc1cccc(CN2C(=O)c3cc(-c4cn[nH]c4)ccc3C2CC#N)c1 (centres unmarked)
Response given: 0.039

Challenge: Follow-up entry: COc1cccc(C(COCCO)N2Cc3ccc(-c4cn[nH]c4)cc3C2=O)c1 (centres unmarked)
Response given: 0.008

Challenge: Follow-up entry: CCOc1cccc([C@H](C(=O)O)N2Cc3ccc(-c4cn[nH]c4)cc3C2=O)c1
Response given: 4.2

Challenge: Follow-up entry: COc1cccc(CN2C(=O)c3cc(-c4cn[nH]c4)ccc3C23CCC(O)C3O)c1 (centres unmarked)
Response given: 0.006

Challenge: Follow-up entry: COc1cccc([C@@H](C)N2C(=O)c3cc(-c4cn[nH]c4)ccc3[C@@H]2CC(=O)O)c1 (single isomer, unassigned)
Response given: 0.012

Challenge: Follow-up entry: COC(=O)[C@H](c1cccc(OC)c1)N1Cc2ccc(-c3cn[nH]c3)cc2C1=O
Response given: 0.13

Challenge: Follow-up entry: COC(=O)NC1CCCC12c1ccc(-c3cn[nH]c3)cc1C(=O)N2Cc1cccc(OC)c1 (centres unmarked)
Response given: 0.177

Challenge: Follow-up entry: COc1cccc(C(CO)N2Cc3c(cc(-c4cn[nH]c4)cc3-c3cncnc3)C2=O)c1 (centres unmarked)
Response given: 0.027

Challenge: Follow-up entry: COc1cccc(CN2C(=O)c3cc(-c4cn[nH]c4)ccc3C23CCCC3C(N)=O)c1 (centres unmarked)
Response given: 0.007

Challenge: Follow-up entry: CC(=O)Oc1cccc(CN2Cc3ccc(-c4cn[nH]c4)cc3C2=O)c1
Response given: 0.014

Challenge: Follow-up entry: COc1cccc(CN2C(=O)c3cc(-c4cn[nH]c4)ccc3C23CCOC3)c1 (centres unmarked)
Response given: 0.007

// data source = patent US20220009906A1
